Would you kindly list EC50 for each of these compounds?
# System: genotype 4a (ED43) stable HCV replicon in Huh-7-derived cells
# PROTOCOL_NOTES: Stable subgenomic HCV replicon EC50, genotype 4a (Renilla luciferase)
# Type: cell-based, hepatitis C virus
# MEASUREMENT_SETUP: Hepatitis C virus, 72 h, read-out: EC50 4A RLUC
Numbers only, in nM.

C[C@@H]1[C@@H]2CN(C(=O)[C@H](C(C)(C)C)NC(=O)O[C@@H]3C[C@@H]4C[C@@H]4[C@H]3CC/C=C/Cn3c(nc4cc(Cl)ccc4c3=O)O2)[C@@H]1C(=O)N[C@]1(C(=O)NS(=O)(=O)C2(C)CC2)C[C@H]1C(F)F :: 8.9

Please give measured EC50 of the following entry: CC[C@@H]1[C@@H]2CN(C(=O)[C@H](C(C)(C)C)NC(=O)O[C@]3(C)CCC[C@H]3CCCCCc3nc4ccc(OC)cc4nc3O2)[C@@H]1C(=O)N[C@]1(C(=O)NS(=O)(=O)C2(C)CC2)C[C@H]1C(F)F 26

----------
# System: genotype 1b NS3/4a protease inhibitor resistant variant D168A transient HCV replicon in Huh-7-derived cells
# PROTOCOL_NOTES: Transient-transfected HCV replicon EC50, genotype 1b D168A
# Format: cell-based, hepatitis C virus
# MEASUREMENT_SETUP: Hepatitis C virus, 72 h, read-out: EC50 1B D168A, transient-transfected replicon genotype 1b D168A resistant variant, 72 h
Kindly state EC50 for each of the entries shown.
Please report the result as a number followed by the unit.

CCC[C@@H]1[C@@H]2CN(C(=O)[C@H](C(C)(C)C)NC(=O)O[C@@H]3C[C@H]3CCCCC(F)(F)c3nc4ccc(OC)cc4nc3O2)[C@@H]1C(=O)N[C@]1(C(=O)NS(=O)(=O)C2CC2)C[C@H]1C(F)F :: 0.015 µM
C=C[C@@H]1C[C@]1(NC(=O)[C@@H]1[C@H](CC)[C@@H]2CN1C(=O)[C@H](C(C)(C)C)NC(=O)O[C@@H]1C[C@H]1CCCCC(F)(F)c1nc3ccc(OC)cc3nc1O2)C(=O)NS(=O)(=O)C1CC1 :: 0.0053 µM
CC[C@@H]1[C@@H]2CN(C(=O)[C@H](C(C)(C)C)NC(=O)O[C@@H]3C[C@H]3CCCCC(F)(F)c3nc4ccc(OC(F)(F)F)cc4nc3O2)[C@@H]1C(=O)N[C@]1(C(=O)NS(=O)(=O)C2(C)CC2)C[C@H]1C(F)F :: 0.202 µM
COc1ccc2nc3c(nc2c1)O[C@H]1CN(C(=O)[C@H](C(C)(C)C)NC(=O)O[C@@H]2C[C@H]2CCCCC3)[C@H](C(=O)N[C@]2(C(=O)NS(=O)(=O)C3CC3)C[C@H]2CCF)[C@@H]1C :: 0.242 µM
CCC[C@@H]1[C@@H]2CN(C(=O)[C@H](C(C)(C)C)NC(=O)O[C@@H]3C[C@H]3CCCCC(F)(F)c3nc4ccc(OC)cc4nc3O2)[C@@H]1C(=O)N[C@]1(C(=O)NS(=O)(=O)C2(C)CC2)C[C@H]1C(F)F :: 0.011 µM
COc1ccc2nc3c(nc2c1)O[C@H]1CN(C(=O)[C@H](C(C)(C)C)NC(=O)O[C@@H]2[C@H]4CC[C@H](C4)[C@H]2CCCCC3)[C@H](C(=O)N[C@]2(C(=O)NS(=O)(=O)C3CC3)C[C@H]2C(F)F)[C@@H]1C :: 0.109 µM
CC[C@]12C[C@@H]1CCCCCc1nc3ccc(OC)cc3nc1O[C@H]1CN(C(=O)[C@H](C(C)(C)C)NC(=O)O2)[C@H](C(=O)N[C@]2(C(=O)NS(=O)(=O)C3(C)CC3)C[C@H]2C(F)F)[C@@H]1C :: 0.109 µM
CC[C@@H]1[C@@H]2CN(C(=O)[C@H](C(C)(C)C)NC(=O)O[C@@]3(C)C[C@@H]3CCCCC(F)(F)c3nc4ccc(OC)cc4nc3O2)[C@@H]1C(=O)N[C@]1(C(=O)NS(=O)(=O)C2(C)CC2)C[C@H]1C(F)F :: 0.104 µM

Specify measured EC50 for CC[C@@H]1[C@@H]2CN(C(=O)[C@H](C(C)(C)C)NC(=O)O[C@]3(C)C[C@H]3CCCCC(F)(F)c3nc4ccc(OC)cc4nc3O2)[C@@H]1C(=O)N[C@]1(C(=O)NS(=O)(=O)C2(C)CC2)C[C@H]1C(F)F . 0.0034 µM
